- Assay Target: Voltage-gated inwardly rectifying potassium channel KCNH2 (Homo sapiens, UniProt Q12809)
- Sequence (Q12809 whole entry): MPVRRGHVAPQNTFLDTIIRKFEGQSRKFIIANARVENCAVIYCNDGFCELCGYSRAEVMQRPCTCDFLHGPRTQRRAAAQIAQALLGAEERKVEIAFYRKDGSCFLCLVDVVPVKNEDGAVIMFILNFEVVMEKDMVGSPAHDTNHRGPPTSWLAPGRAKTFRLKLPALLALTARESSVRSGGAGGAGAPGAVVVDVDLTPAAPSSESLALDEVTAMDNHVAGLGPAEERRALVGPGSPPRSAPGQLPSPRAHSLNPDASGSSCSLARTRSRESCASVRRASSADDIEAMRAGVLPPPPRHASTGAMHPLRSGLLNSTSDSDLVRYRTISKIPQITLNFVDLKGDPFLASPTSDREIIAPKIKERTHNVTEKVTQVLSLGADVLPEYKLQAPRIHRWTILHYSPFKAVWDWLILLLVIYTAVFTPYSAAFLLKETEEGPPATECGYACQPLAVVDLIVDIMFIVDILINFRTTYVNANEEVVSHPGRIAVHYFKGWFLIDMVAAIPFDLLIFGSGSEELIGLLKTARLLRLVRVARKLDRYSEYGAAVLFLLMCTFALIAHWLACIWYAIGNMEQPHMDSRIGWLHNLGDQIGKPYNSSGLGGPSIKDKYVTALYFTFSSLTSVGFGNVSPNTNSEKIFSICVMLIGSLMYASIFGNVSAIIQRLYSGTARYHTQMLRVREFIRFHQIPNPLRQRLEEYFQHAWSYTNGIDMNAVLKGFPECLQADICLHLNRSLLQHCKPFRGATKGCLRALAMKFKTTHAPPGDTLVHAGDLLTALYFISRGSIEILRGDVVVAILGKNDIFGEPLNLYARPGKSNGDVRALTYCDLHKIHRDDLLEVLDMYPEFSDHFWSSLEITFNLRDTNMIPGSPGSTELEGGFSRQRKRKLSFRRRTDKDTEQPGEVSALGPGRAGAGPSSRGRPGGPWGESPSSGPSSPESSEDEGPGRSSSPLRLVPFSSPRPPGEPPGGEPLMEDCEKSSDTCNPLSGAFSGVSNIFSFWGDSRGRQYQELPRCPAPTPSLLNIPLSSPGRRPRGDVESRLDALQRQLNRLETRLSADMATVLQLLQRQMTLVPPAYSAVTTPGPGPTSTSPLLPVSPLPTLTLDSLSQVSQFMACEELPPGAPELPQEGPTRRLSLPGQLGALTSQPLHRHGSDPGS
- Assay Summary: Inhibition of human ERG by patch-clamp assay
Reported Property: IC50

Compound Smiles: O=C1N2C[C@@H](CC[C@H]2F)N1OS(=O)(=O)[O-].[Na+]
Recorded Measurement: > 100 µM

---

Sequence of the target: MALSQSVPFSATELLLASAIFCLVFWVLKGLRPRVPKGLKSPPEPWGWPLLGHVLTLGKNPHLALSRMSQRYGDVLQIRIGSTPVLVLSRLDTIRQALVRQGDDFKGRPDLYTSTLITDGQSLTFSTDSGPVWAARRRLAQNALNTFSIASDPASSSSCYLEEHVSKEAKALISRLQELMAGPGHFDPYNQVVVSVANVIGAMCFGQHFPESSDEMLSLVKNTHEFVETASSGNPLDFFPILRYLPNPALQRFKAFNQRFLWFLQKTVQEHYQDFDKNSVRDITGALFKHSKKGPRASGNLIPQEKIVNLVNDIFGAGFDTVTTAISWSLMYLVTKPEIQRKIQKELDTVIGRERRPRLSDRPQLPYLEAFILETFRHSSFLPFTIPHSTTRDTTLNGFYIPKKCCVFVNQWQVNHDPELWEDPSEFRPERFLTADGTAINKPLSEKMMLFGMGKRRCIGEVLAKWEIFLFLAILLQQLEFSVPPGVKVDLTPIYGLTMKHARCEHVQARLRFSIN
pIC50: −log10 of the molar value.

Compound Smiles: O=C1N2C[C@@H](CC[C@H]2F)N1OS(=O)(=O)[O-].[Na+]
pIC50: < 4.30

---

- Assay Summary: Inhibition of beta lactamase KPC-2 in Enterobacter cloacae assessed as decrease in enzyme activity using nitrocefin as substrate preincubated for 10 mins followed by substrate addition measured for 10 mins by fluorescence plate reader analysis
Form field: IC50 (one value per entry).

Compound: O=C1N2C[C@@H](CC[C@H]2CF)N1OS(=O)(=O)[O-].[Na+]
Output Unit: nM
IC50: 51

Compound: O=C1N2C[C@@H](CC[C@H]2C(F)(F)c2nccs2)N1OS(=O)(=O)[O-].[Na+]
Output Unit: nM
IC50: 3

Compound: O=C1N2C[C@@H](CC[C@H]2C(Cl)Cl)N1OS(=O)(=O)[O-].[Na+]
Output Unit: nM
IC50: 4

Compound: O=C1N2C[C@@H](CC[C@H]2Cl)N1OS(=O)(=O)[O-].[Na+]
Output Unit: nM
IC50: 31

Compound: O=C1N2C[C@@H](CC[C@H]2C(F)F)N1OS(=O)(=O)[O-].[Na+]
Output Unit: nM
IC50: 7

Compound: O=C1N2C[C@@H](CC[C@H]2F)N1OS(=O)(=O)[O-].[Na+]
Output Unit: nM
IC50: 19

Compound: NC(=O)[C@@H]1CC[C@@H]2CN1C(=O)N2OS(=O)(=O)O [AVIBACTAM]
Output Unit: nM
IC50: 8

Compound: O=C1N2C[C@@H](CC[C@H]2COC(F)(F)F)N1OS(=O)(=O)[O-].[Na+]
Output Unit: nM
IC50: 13

Compound: O=C1N2C[C@@H](CC[C@H]2C(F)(F)F)N1OS(=O)(=O)[O-].[Na+]
Output Unit: nM
IC50: 6

---

- Assay Summary: Half life in rat at 1 mg/kg, iv
- Assay type: ADME, organism-based
- Condition Notes: in vivo

Compound Smiles: NC(=O)[C@@H]1CC[C@@H]2CN1C(=O)N2OS(=O)(=O)O
half-life: 22.2 min
//
Compound Smiles: O=C1N2C[C@@H](CC[C@H]2F)N1OS(=O)(=O)[O-].[Na+]
half-life: 38.4 min

All values here come from ChEMBL document CHEMBL4699665.
